- TESTED_TARGET: human OX2 receptor (Homo sapiens)
- Construct: expressed in transfected cells
- ASSAY_SUMMARY: Measurement of orexin type 2 receptor agonist activity (Experimental Example 3; calcium 5 dye, FLIPR Tetra)
- Assay type: cell-based
- ASSAY_CONTEXT: compound at 1 μM; CHO cells expressing human OX2 receptor; DMSO = 0%, 10 nM orexin A (human) = 100%
Where a name gives a salt, the structure may show the parent alone.
OBSERVABLE: OX2R agonist activity (1 μM, %)

Consider the following illustrative entries.
CCS(=O)(=O)N[C@@H]1[C@@H]2Cc3cccc(c3F)Cc3nc(ccc3C)CNC(=O)N2CC1(F)F [Example 104, hydrochloride] ... 109
Cc1cc(F)c2nc1Oc1cccc(c1F)C[C@H]1[C@@H](NS(=O)(=O)C(C)C)C(F)(F)CN1C(=O)NC2 [Example 109] ... 108
CCS(=O)(=O)N[C@@H]1[C@@H]2Cc3cccc(c3F)[C@@H](C)c3nc(ccc3C)CNC(=O)N2CC1(F)F (single isomer, unassigned) [Example 105] ... 106
CCS(=O)(=O)N[C@@H]1[C@@H]2Cc3ccc(C)c(c3F)Oc3nc(ccc3C)CNC(=O)N2CC1(F)F [Example 101] ... 108
CCS(=O)(=O)N[C@@H]1[C@@H]2Cc3cccc(c3F)Oc3nc(ccc3C)NCC(=O)N2CC1(F)F [Example 99] ... 97
CC(C)S(=O)(=O)N[C@@H]1[C@@H]2Cc3cccc(c3F)Oc3nc(ccc3Cl)CNC(=O)N2CC1(F)F [Example 108] ... 101
CCS(=O)(=O)N[C@@H]1[C@@H]2Cc3cccc(c3F)[C@H](C)c3nc(ccc3C)CNC(=O)N2CC1(F)F (single isomer, unassigned) [Example 106] ... 90
CCS(=O)(=O)N[C@@H]1[C@@H]2Cc3cccc(c3F)Cc3nc(ccc3C)OCC(=O)N2CC1(F)F [Example 102] ... 94

A = CCS(=O)(=O)N[C@@H]1[C@@H]2Cc3cccc(c3F)Cc3cc(ccc3C)CNC(=O)N2CC1(F)F [Example 103]
B = CCS(=O)(=O)N[C@@H]1[C@@H]2Cc3c(C)ccc(c3F)Oc3nc(ccc3C)CNC(=O)N2CC1(F)F [Example 98]
query: Which of the two gives a bigger number for OX2R agonist activity (1 μM, %): A or B ? In your reply, give the label of the chosen option.
result: A
(A: 104%, B: 65%)

---

- TESTED_TARGET: human OX2 receptor (Homo sapiens, UniProt O43614)
- Construct: expressed in transfected cells
- Sequence (O43614 whole entry): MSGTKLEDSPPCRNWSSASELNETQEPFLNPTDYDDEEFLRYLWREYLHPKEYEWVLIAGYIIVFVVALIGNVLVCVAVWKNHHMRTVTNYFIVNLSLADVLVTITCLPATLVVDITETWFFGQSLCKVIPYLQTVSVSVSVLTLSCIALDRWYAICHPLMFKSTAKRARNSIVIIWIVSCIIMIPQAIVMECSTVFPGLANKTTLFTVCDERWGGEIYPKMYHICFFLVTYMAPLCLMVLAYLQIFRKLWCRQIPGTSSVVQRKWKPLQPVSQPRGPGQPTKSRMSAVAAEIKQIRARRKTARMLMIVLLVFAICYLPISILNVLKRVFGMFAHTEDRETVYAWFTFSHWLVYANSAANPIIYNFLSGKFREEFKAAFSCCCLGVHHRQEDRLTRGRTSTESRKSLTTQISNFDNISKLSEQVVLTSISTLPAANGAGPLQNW
- ASSAY_SUMMARY: Measurement of orexin type 2 receptor agonist activity (Experimental Example 2; Fluo-4 AM calcium fluorescence, FDSS μCELL)
- Type: cell-based
- ASSAY_CONTEXT: compound at 3 μM; CHO cells expressing human OX2 receptor; DMSO = 0%, 10 nM orexin A (human) = 100%
OBSERVABLE: OX2R agonist activity (3 μM, %)

CS(=O)(=O)N[C@H]1[C@@H](F)CN2C(=O)OCc3ccc(C(F)F)c(n3)Oc3cccc(c3F)C[C@@H]12 ... 80

A = Cc1ccc2nc1Oc1cccc(c1F)C[C@H]1[C@@H](NS(C)(=O)=O)C(F)(F)CN1C(=O)NC2C (stereo partly shown)
B = CCS(=O)(=O)N[C@@H]1[C@@H]2Cc3cccc(c3F)Oc3nc(ccc3C)N(C)CC(=O)N2CC1(F)F
query: // compare measured OX2R agonist activity (3 μM, %), left A , right B , return larger Respond using the label that marks the chosen record.
result: A
(A: 103%, B: 67%)
